system: Escherichia coli IAI1; experiment: growth (OD595) fold change vs plate DMSO controls (fold change (ratio)); higher = more growth; details: incubation time: 27 h, anaerobic, 37 °C
Structures can show the parent of a compound that is named as a salt.
// label = criterion met if growth is not less than 1, otherwise criterion not met

Known results for compounds:
CC(C)(C)C(O)/C=C/c1ccc2c(c1)OCO2 (stereo unspecified) [Stiripentol] (20 µM): criterion met
CC(/C=C1\SC(=S)N(CC(=O)O)C1=O)=C\c1ccccc1 [Epalrestat] (20 µM): criterion not met
C=CCOc1ccc(CC(=O)O)cc1Cl [Alclofenac] (20 µM): criterion met

// query Entry CCc1ccc(C(=O)C(C)CN2CCCCC2)cc1 (stereo unspecified) [Eperisone Hydrochloride] (20 µM) : is its growth no less than 1?
// result criterion not met

// query Entry Cc1ncc(C[n+]2csc(CCO)c2C)c(N)n1 [Thiamine hydrochloride] (20 µM) : is its growth no less than 1?
// result criterion not met

These measurements were taken from the supplement of paper PMC12494721.
